Overview of recorded IC50 for various compounds
System: PDK1 kinase activity in PC3 cells (phospho-T308-PKB)
Experiment: Cellular testing of PDK1 kinase inhibitors in PC3 cells (Luminex, phospho-T308-PKB)
Format: cell-based
Conditions: Homo sapiens, PC-3, 0.5 h, 30 min with test substance, serum-free, phospho-T308-PKB by Luminex, read-out: IC50 [PC3 P-PKB Thr308]

> print(dat)
                                   compound                              study.system  reported.result
1  CCc1cc(-c2c[nH]c3ncc(-c4ccc(N5CCNCC5)nc4)cc23)nc(N)n1  PDK1 kinase activity in PC3 cells (phospho-T308-PKB)       1 to 10 µM

Reported IC50 of `CC(C)n1cc(-c2cnc3[nH]cc(-c4cc(CCCn5ccnc5)nc(N)n4)c3c2)cn1` : 10 to 20 µM

Reported IC50 of `CCc1cc(-c2c[nH]c3ncc(-c4cnn(Cc5cccc(F)c5)c4)cc23)nc(N)n1` : 1 to 10 µM

Reported IC50 of `CN1CCN(CCc2cc(-c3c[nH]c4ncccc34)nc(N)n2)CC1` : 10 to 20 µM

Reported IC50 of CCC(O)c1cc(-c2c[nH]c3ncc(-c4cnn(C(C)C)c4)cc23)nc(N)n1 (centres unmarked) : 10 to 20 µM

Reported IC50 of `CC(C)n1cc(-c2cnc3[nH]cc(-c4cc(C5(O)CCNCC5)nc(N)n4)c3c2)cn1` : 10 to 20 µM

Reported IC50 of `CCc1cc(-c2c[nH]c3ncc(-c4cnn(C5CCNCC5)c4)cc23)nc(N)n1` : 10 to 20 µM

Reported IC50 of `CCc1cc(-c2c[nH]c3ncc(-c4cnn(CC(=O)N5CCCc6ccccc65)c4)cc23)nc(N)n1` : 1 to 10 µM

====

Tested on: PDK1 kinase activity in PC3 cells (phospho-T308-PKB)
Experiment: Cellular testing of PDK1 kinase inhibitors in PC3 cells (Luminex, phospho-T308-PKB)
Format: cell-based
Details: Homo sapiens, PC-3, 0.5 h, 30 min with test substance, serum-free, phospho-T308-PKB by Luminex, read-out: IC50 [PC3 P-PKB Thr308]
pIC50: −log10 of the molar value.
READOUT_TYPE: pIC50

Completed entries (count: 6):
> print(dat)
                                   molecule                              study.system  reported.result
1  CC(C)n1cc(-c2cnc3[nH]cc(-c4cc(CCCCO)nc(N)n4)c3c2)cn1  PDK1 kinase activity in PC3 cells (phospho-T308-PKB)     5.00 to 6.00
2  CC(C)n1cc(-c2cnc3[nH]cc(-c4cc(C5(O)CCCCC5)nc(N)n4)c3c2)cn1  PDK1 kinase activity in PC3 cells (phospho-T308-PKB)     4.70 to 5.00
3  CCc1cc(-c2c[nH]c3ncc(-c4cnn(CC(=O)O)c4)cc23)nc(N)n1  PDK1 kinase activity in PC3 cells (phospho-T308-PKB)     4.70 to 5.00
4  CCC(O)(c1ccccc1)c1cc(-c2c[nH]c3ncc(-c4cnn(C(C)C)c4)cc23)nc(N)n1 (centres unmarked)  PDK1 kinase activity in PC3 cells (phospho-T308-PKB)     6.00 to 8.00
5  CCc1cc(-c2c[nH]c3ncc(-c4cnn(CC(=O)N5CCOCC5)c4)cc23)nc(N)n1  PDK1 kinase activity in PC3 cells (phospho-T308-PKB)     4.70 to 5.00
6  CCc1cc(-c2c[nH]c3ncc(-c4cnn(C(C)C(=O)Nc5ccc6[nH]ccc6c5)c4)cc23)nc(N)n1 (centres unmarked)  PDK1 kinase activity in PC3 cells (phospho-T308-PKB)     5.00 to 6.00

Reported pIC50 of `CC(C)n1cc(-c2cnc3[nH]cc(-c4cc(C5CCCCC5)nc(N)n4)c3c2)cn1` : 5.00 to 6.00

Reported pIC50 of `CN(C)CCn1cc(-c2cnc3[nH]cc(-c4cc(CCCCO)nc(N)n4)c3c2)cn1` : 4.70 to 5.00
